Quick note: these are IC50 numbers for system: hBChE
Property measured: IC50

* COCC1CCCN(CCNC(=O)c2cc3nn(CC4CCCCC4)cc3cc2Oc2ccc(F)cc2F)C1 (centres unmarked) | 0.021 µM
* CN(C)CCNC(=O)c1cc2c(cnn2C2C=CCCC2)cc1Oc1ccc(F)cc1F (centres unmarked) | 8.35 µM
* NC(=O)c1ccccc1NC(=O)Nc1ccc(Cl)c(Cl)c1 | 19.4 µM
* CN(C)CCNC(=O)c1cc2nn(CC3CCCCC3)cc2cc1Cc1ccc(F)cc1F | 0.748 µM
* CC(C)Cn1ncc2cc(Sc3ccc(F)cc3F)c(C(=O)NCCN(C)C)cc21 | 2.25 µM

====

- Test system: hAChE
Mark Met for RA at 100 µM under 70%, Not met if at or over.

• COC(=O)c1cc2c(cnn2CC2CC2)cc1Oc1ccc(F)cc1F = Not met
• CC(C)Cn1ncc2cc(Sc3ccc(F)cc3F)c(C(=O)NCCN(C)C)cc21 [Compound 92] = Met
• CC(C)Cn1cc2cc(Oc3ccc(F)cc3)c(C(=O)NCCN(C)C)cc2n1 [Compound 107] = Met
• COCC1CCCN(CCNC(=O)c2cc3nn(CC4CCCCC4)cc3cc2Oc2ccc(F)cc2F)C1 (centres unmarked) [Compound 102] = Met

====

- Experiment summary: Pharmacokinetic study in mice
- Condition set: male, CD-1, mouse, serum, ip, 2.5 mg/kg
Property measured: Vd/F (L/kg)

• CCN(C)C(=O)Oc1cccc([C@H](C)N(C)C)c1 [rivastigmine, reference compound] = 37.2

====

- Experiment summary: Pharmacokinetic study in mice
- Condition set: male, CD-1, mouse, brain, ip, 2.5 mg/kg
Property measured: Cmax

- CCN(C)C(=O)Oc1cccc([C@H](C)N(C)C)c1 [rivastigmine, reference compound]: 609 ng/g

====

- Tgt: human p38α MAPK (Homo sapiens)
- Experiment summary: biochemical
- Condition set: p38α MAPK IC50 ± SEM, two independent experiments, each in triplicate
Listing: IC50 of selected compounds
Property measured: IC50 (µM)

* CN(C)CCNC(=O)c1cc2[nH]ncc2cc1Oc1ccc(F)cc1F | 6.03
* CN(C)CCCNC(=O)c1cc2nn(CC3CCCCC3)cc2cc1Oc1ccc(F)cc1F | 16.2
* O=C(NCCn1ccnc1)c1cc2nn(CC3CCCCC3)cc2cc1Oc1ccc(F)cc1F | 19.5
* CC(C)Cn1ncc2cc(Sc3ccc(F)cc3F)c(C(=O)NCCN(C)C)cc21 | 0.053

====

- Tgt: hBChE (Homo sapiens)
- Sequence (P06276 29-602): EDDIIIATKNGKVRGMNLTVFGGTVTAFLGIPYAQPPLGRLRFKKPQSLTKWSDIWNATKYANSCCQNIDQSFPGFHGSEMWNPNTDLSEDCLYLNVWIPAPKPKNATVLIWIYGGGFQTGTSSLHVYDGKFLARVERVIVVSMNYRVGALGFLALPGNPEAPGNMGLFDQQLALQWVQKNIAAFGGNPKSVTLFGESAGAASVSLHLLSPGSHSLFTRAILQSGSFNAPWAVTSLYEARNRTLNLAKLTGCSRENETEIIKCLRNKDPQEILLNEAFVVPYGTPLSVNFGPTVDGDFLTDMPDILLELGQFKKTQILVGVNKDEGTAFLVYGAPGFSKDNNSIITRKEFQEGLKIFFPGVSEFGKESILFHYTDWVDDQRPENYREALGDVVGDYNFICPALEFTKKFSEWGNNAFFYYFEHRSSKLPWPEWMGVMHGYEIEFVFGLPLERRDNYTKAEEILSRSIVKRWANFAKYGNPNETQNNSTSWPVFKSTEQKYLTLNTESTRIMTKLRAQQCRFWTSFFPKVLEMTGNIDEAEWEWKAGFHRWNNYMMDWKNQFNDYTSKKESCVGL
- Experiment summary: biochemical
- Condition set: hBChE IC50 ± SEM, two independent experiments, each in triplicate
Mark Condition met for IC50 under 3 µM, Condition not met if at or over.

• CC(C)Cn1ncc2cc(Oc3ccc(F)cc3F)c(C(=O)NCCN(C)C)cc21 [Compound 72, reference compound] = Condition not met
• CN(C)CCNC(=O)c1cc2nn(CC3CC3)cc2cc1Oc1ccc(F)cc1F [Compound 98] = Condition not met
• COCC1CCCN(CCNC(=O)c2cc3c(cnn3CC3CCCCC3)cc2Oc2ccc(F)cc2F)C1 (racemic) [Compound 79] = Condition not met
• O=C(NCCn1ccnc1)c1cc2c(cnn2CC2CCCCC2)cc1Oc1ccc(F)cc1F [Compound 82] = Condition not met
• COC1CCCN(CCNC(=O)c2cc3nn(CC4CCCCC4)cc3cc2Oc2ccc(F)cc2F)C1 (stereo not shown) [Compound 101] = Condition met
• CC(C)Cn1ncc2cc(Oc3ccc4ccccc4c3)c(C(=O)NCCN(C)C)cc21 [Compound 90] = Condition not met
• CN(C)CCCNC(=O)c1cc2c(cnn2CC2CC2)cc1Oc1ccc(F)cc1F [Compound 74] = Condition not met
• COCC1CCCN(CCNC(=O)c2cc3nn(CC4CCCCC4)cc3cc2Oc2ccc(F)cc2F)C1 (stereo not shown) [Compound 102] = Condition met
• O=C(NCCn1ccnc1)c1cc2nn(CC3CCCCC3)cc2cc1Oc1ccc(F)cc1F [Compound 105] = Condition met
• CN(C)CCNC(=O)c1cc2c(cnn2Cc2ccccc2)cc1Oc1ccc(F)cc1F [Compound 86] = Condition not met
• O=C(NCCN1CCOCC1)c1cc2nn(CC3CCCCC3)cc2cc1Oc1ccc(F)cc1F [Compound 103] = Condition not met
• CN(C)CCNC(=O)c1cc2c(cnn2CC2CCCCC2)cc1Cc1ccc(F)cc1F [Compound 95] = Condition met
• CC(C)Cn1ncc2cc(Oc3cccc4ccccc34)c(C(=O)NCCN(C)C)cc21 [Compound 89] = Condition not met
• CC(C)CCn1ncc2cc(Oc3ccc(F)cc3F)c(C(=O)NCCN(C)C)cc21 [Compound 85] = Condition met
• CN(C)CCNC(=O)c1cc2[nH]ncc2cc1Oc1ccc(F)cc1F [Compound 87] = Condition not met
• CN(C)CCNC(=O)c1cc2nn(CC3CCCCC3)cc2cc1Oc1ccc(F)cc1F [Compound 99] = Condition met
• CN(C)CCNC(=O)c1cc2nn(CC3CCCCC3)cc2cc1Cc1ccc(F)cc1F [Compound 108] = Condition met
• CN(C)CCNC(=O)c1cc2c(cnn2C)cc1Cc1ccc(F)cc1F [Compound 96] = Condition not met
• CC(C)Cn1ncc2cc(Cc3ccc(F)cc3F)c(C(=O)NCCN(C)C)cc21 [Compound 94] = Condition met
• CN(C)CCNC(=O)c1cc2c(cnn2C2C=CCCC2)cc1Oc1ccc(F)cc1F (stereo not shown) [Compound 83] = Condition not met
• CC(C)Cn1cc2cc(Oc3ccc(F)cc3F)c(C(=O)NCCN(C)C)cc2n1 [Compound 97] = Condition not met
• CN(C)CCNC(=O)c1cc2c(cnn2CC2CC2)cc1Oc1ccc(F)cc1F [Compound 73] = Condition not met
• CN(C)CCCNC(=O)c1cc2c(cnn2CC2CCCCC2)cc1Oc1ccc(F)cc1F [Compound 76] = Condition met
• CN(C)CCCNC(=O)c1cc2nn(CC3CCCCC3)cc2cc1Oc1ccc(F)cc1F [Compound 100] = Condition met
• CC(C)Cn1ncc2cc(Oc3ccc(F)cc3)c(C(=O)NCCN(C)C)cc21 [Compound 88] = Condition not met
• CC(C)Cn1cc2cc(Oc3ccc(F)cc3)c(C(=O)NCCN(C)C)cc2n1 [Compound 107] = Condition not met
• CC(C)Cn1ncc2cc(Sc3ccc(F)cc3F)c(C(=O)NCCN(C)C)cc21 [Compound 92] = Condition met
• CN(C)CCNC(=O)c1cc2c(cnn2CC2CCC2)cc1Oc1ccc(F)cc1F [Compound 84] = Condition not met

====

- Tgt: p38α MAPK
Listing: IC50 of selected compounds
Property measured: IC50 (nM)

* CC(C)Cn1ncc2cc(Oc3ccc(F)cc3)c(C(=O)NCCN(C)C)cc21 [Compound 88] | 276
* CN(C)CCNC(=O)c1cc2c(cnn2Cc2ccccc2)cc1Oc1ccc(F)cc1F [Compound 86] | 739
* CC(C)CCn1ncc2cc(Oc3ccc(F)cc3F)c(C(=O)NCCN(C)C)cc21 [Compound 85] | 189
* CN(C)CCCNC(=O)c1cc2c(cnn2CC2CC2)cc1Oc1ccc(F)cc1F [Compound 74] | 96
* COC1CCCN(CCNC(=O)c2cc3c(cnn3CC3CCCCC3)cc2Oc2ccc(F)cc2F)C1 (centres unmarked) | 744

====

- Tgt: human p38α MAPK (Homo sapiens, UniProt Q16539)
- Sequence (Q16539 whole entry): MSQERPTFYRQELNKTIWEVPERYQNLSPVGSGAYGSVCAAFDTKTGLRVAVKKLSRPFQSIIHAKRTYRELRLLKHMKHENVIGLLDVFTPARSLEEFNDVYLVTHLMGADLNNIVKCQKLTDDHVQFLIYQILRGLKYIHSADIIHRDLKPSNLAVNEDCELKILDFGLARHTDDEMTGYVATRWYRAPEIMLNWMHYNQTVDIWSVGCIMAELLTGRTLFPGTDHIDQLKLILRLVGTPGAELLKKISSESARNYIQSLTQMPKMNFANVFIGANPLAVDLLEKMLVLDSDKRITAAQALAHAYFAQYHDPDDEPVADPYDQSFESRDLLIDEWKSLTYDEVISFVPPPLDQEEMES
- Experiment summary: biochemical
- Condition set: p38α MAPK IC50 ± SEM, two independent experiments, each in triplicate
pIC50: −log10 of the molar value.
Listing: pIC50 of selected compounds
Property measured: pIC50

• CN(C)CCNC(=O)c1cc2c(cnn2CC2CC2)cc1Oc1ccc(F)cc1F = 6.44
• COCC1CCCN(CCNC(=O)c2cc3c(cnn3CC3CCCCC3)cc2Oc2ccc(F)cc2F)C1 (racemic) = 6.42
• CC(C)Cn1cc2cc(Oc3ccc(F)cc3F)c(C(=O)NCCN(C)C)cc2n1 = 5.24
• CC(C)Cn1ncc2cc(Oc3ccc(F)cc3)c(C(=O)NCCN(C)C)cc21 = 6.56

====

- Experiment summary: Pharmacokinetic study in mice
- Condition set: male, CD-1, mouse, serum, ip, 2.5 mg/kg
Property measured: CL/F (mL/min/kg)

* CCN(C)C(=O)Oc1cccc([C@H](C)N(C)C)c1 [rivastigmine, reference compound] | 860

====

- Tgt: hAChE (Homo sapiens)
- Sequence (P22303 32-614): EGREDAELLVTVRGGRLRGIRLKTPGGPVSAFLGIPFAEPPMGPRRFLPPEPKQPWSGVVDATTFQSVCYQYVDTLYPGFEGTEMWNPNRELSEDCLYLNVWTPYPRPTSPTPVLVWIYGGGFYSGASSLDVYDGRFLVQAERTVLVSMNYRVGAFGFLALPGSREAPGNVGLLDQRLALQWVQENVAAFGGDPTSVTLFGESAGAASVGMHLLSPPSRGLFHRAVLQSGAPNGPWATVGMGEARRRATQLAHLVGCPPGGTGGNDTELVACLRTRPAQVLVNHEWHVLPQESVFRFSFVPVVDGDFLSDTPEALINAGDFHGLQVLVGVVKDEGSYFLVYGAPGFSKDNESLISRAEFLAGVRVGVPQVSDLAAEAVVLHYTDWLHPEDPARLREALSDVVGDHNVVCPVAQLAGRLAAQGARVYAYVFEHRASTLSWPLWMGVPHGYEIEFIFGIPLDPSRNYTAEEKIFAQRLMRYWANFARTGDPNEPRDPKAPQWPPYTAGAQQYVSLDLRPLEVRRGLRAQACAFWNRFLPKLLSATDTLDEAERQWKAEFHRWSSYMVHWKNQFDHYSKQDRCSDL
- Condition set: residual activity at 100 μM; mean ± SD, one experiment in triplicate
Property measured: hAChE RA at 100 μM

* COC1CCCN(CCNC(=O)c2cc3nn(CC4CCCCC4)cc3cc2Oc2ccc(F)cc2F)C1 (stereo not shown) | 51.8 ± 1.6%
* CN(C)CCNC(=O)c1cc2nn(CC3CCCCC3)cc2cc1Cc1ccc(F)cc1F | 96.49±35.9%
* CN(C)CCNC(=O)c1cc2nn(CC3CC3)cc2cc1Oc1ccc(F)cc1F | 56.2 ± 4.0%
* CC(C)Cn1cc2cc(Oc3ccc(F)cc3)c(C(=O)NCCN(C)C)cc2n1 | 57.6 ± 2.2%
* O=C(NCCN1CCOCC1)c1cc2nn(CC3CCCCC3)cc2cc1Oc1ccc(F)cc1F | 78.3 ± 2.1%
* O=C(NCCn1ccnc1)c1cc2nn(CC3CCCCC3)cc2cc1Oc1ccc(F)cc1F | 55.4 ± 1.3%
* CC(C)Cn1cc2cc(Oc3ccc(F)cc3F)c(C(=O)NCCN(C)C)cc2n1 | 51.8 ± 1.6%

Values compiled from paper PMC12406203.
